Where do these numbers come from? They come from ChEMBL document CHEMBL5370611.

test: Selectivity index, ratio of CC50 for human HepDE19 cells assessed as reduction in cell viability to EC50 for HBV infected in human HepG2.2.15 cells assessed as reduction in HBV DNA replication; assay type: toxicity, cell-based; settings: HBV-infected HepG2.2.15 cells (EC50)
Catalogue of compounds with associated selectivity ratio

Record excerpt, results attached:
| Smiles Structure | selectivity ratio |
| --- | --- |
| C[C@H]1[C@H](C)n2ncc(N3CCCC3=O)c2CN1C(=O)Nc1cc(F)c(F)c(F)c1 | > 1920 |
| O=C(Nc1ccc(F)c(Cl)c1)N1CCn2ncc(NC3CCCC3)c2C1 | > 43 |
| C[C@H]1Cn2ncc(N3CCOCC3=O)c2CN1C(=O)Nc1cc(F)c(F)c(F)c1 | > 1590 |
| O=C(Nc1ccc(F)c(Cl)c1)N1CCn2ncc(N3CCOCC3=O)c2C1 | > 645 |
| C[C@H]1Cn2ncc(N3CCOCC3=O)c2CN1C(=O)Nc1ccc(F)c(Cl)c1 | > 3700 |

Attention now turns to another entry.
# input Please supply the value of reported selectivity ratio for the item O=C(Cc1ccccc1)N1CCn2ncc(-c3ccc(F)cc3)c2C1
# output > 32
